subject.of.test: group 3: OR1I1, OR51B6, OR6C1, ATG9A, RP1 and NR2E1 homologous peptide/HLA-A*02:01 complexes (mixed)
protocol.notes: SPR (BIAcore T200), crude scFv captured, mixed complexes flowed over
Overview of reported SPR binding level across a group of binders:
quantity.name: SPR binding level (RU)

1) 70-AS170036 VL1VH1-57K98I108A (scFv) scFv: QSALTQPRSVSGSPGQSVTISCAGTSSDVGSENYVSWYQQHPGKAPKLMIYQVNKRASGVPDRFSGSKSGNTASLTISGLQAEDEADYYCASYRSSDINIVFGGGTKLTVLGGGGSGGGGSGGGGSEVQLVESGGGLVQPGGSLRLSCAASGFTFSSYAMSWVRQAPGKGLEWVSTINSGTGKPYYADSVKGRFTISRDNSKNTLYLQMNSLRAEDTAVYYCAKNFFDGSWFLAPPAMDYWGQGTLVTVSSHHHHHH	5.8
2) 19-AS170036 VL1VH1-56N108A (scFv) scFv: QSALTQPRSVSGSPGQSVTISCAGTSSDVGSENYVSWYQQHPGKAPKLMIYQVNKRASGVPDRFSGSKSGNTASLTISGLQAEDEADYYCASYRSSDHNIVFGGGTKLTVLGGGGSGGGGSGGGGSEVQLVESGGGLVQPGGSLRLSCAASGFTFSSYAMSWVRQAPGKGLEWVSTINSGTNSPYYADSVKGRFTISRDNSKNTLYLQMNSLRAEDTAVYYCAKNFFDGSWFLAPPAMDYWGQGTLVTVSSHHHHHH	2.6
3) 48-AS170036 VL1VH1-56Y98Q108S (scFv) scFv: QSALTQPRSVSGSPGQSVTISCAGTSSDVGSENYVSWYQQHPGKAPKLMIYQVNKRASGVPDRFSGSKSGNTASLTISGLQAEDEADYYCASYRSSDQNIVFGGGTKLTVLGGGGSGGGGSGGGGSEVQLVESGGGLVQPGGSLRLSCAASGFTFSSYAMSWVRQAPGKGLEWVSTINSGTYSPYYADSVKGRFTISRDNSKNTLYLQMNSLRAEDTAVYYCAKNFFDGSWFLSPPAMDYWGQGTLVTVSSHHHHHH	6.1
4) 49-AS170036 VL1VH1-56N98F108A (scFv) scFv: QSALTQPRSVSGSPGQSVTISCAGTSSDVGSENYVSWYQQHPGKAPKLMIYQVNKRASGVPDRFSGSKSGNTASLTISGLQAEDEADYYCASYRSSDFNIVFGGGTKLTVLGGGGSGGGGSGGGGSEVQLVESGGGLVQPGGSLRLSCAASGFTFSSYAMSWVRQAPGKGLEWVSTINSGTNSPYYADSVKGRFTISRDNSKNTLYLQMNSLRAEDTAVYYCAKNFFDGSWFLAPPAMDYWGQGTLVTVSSHHHHHH	6.5
5) 67-AS170036 VL1VH1-57K98F108A (scFv) scFv: QSALTQPRSVSGSPGQSVTISCAGTSSDVGSENYVSWYQQHPGKAPKLMIYQVNKRASGVPDRFSGSKSGNTASLTISGLQAEDEADYYCASYRSSDFNIVFGGGTKLTVLGGGGSGGGGSGGGGSEVQLVESGGGLVQPGGSLRLSCAASGFTFSSYAMSWVRQAPGKGLEWVSTINSGTGKPYYADSVKGRFTISRDNSKNTLYLQMNSLRAEDTAVYYCAKNFFDGSWFLAPPAMDYWGQGTLVTVSSHHHHHH	6.3
